# System: H838
# METHOD_NOTES: Proliferation assay (CellTiter Glo)
# Format: cell-based
# CONDITION_LABEL: H838 (RAS WT); 96 hours
# Method: The dose range for most compounds was 4.6 nM-30 μM. The dose ranges for some compounds were adjusted downward to 0.46 nM-3 μM or 0.08 nM-0.5 μM or 0.03 nM-0.2 μM. […] The results are shown in Tables 3-6 for pancreatic cancer, lung cancer, colon/gastric cancer, and leukemia. Other cancer cell lines having wild-type K-RAS status and K-RAS mutation at G12 were also screened using the PKC activator compounds. […] K104 was tested in a range of 0.03 nM-0.2 μM. […]
Answer each item with its documented Top Inhibition %.
Report the value in % with no unit label.

Request: Looking for the measured Top Inhibition % of CC(=O)OC12CC(C)C3(O)C(C4OC4(CO)CC4(O)C(O)C(C)=CC43)C1C2(C)C (stereo not shown) [Compound K101D] , can you help?
Result: 27.7

Request: Looking for the measured Top Inhibition % of CC(=O)OCC1=CC2C3C(C)(C)C3(OC(C)=O)CC(C)C2(O)C2C=C(C)C(=O)C2(O)C1 (stereo not shown) [Compound K101E] , can you help?
Result: 26.8

Request: Looking for the measured Top Inhibition % of C/C=C(/C)C(=O)O[C@H]1C(C)=C[C@]23C(=O)[C@@H](C=C(CO)[C@@H](O)[C@]12O)[C@H]1[C@@H](C[C@H]3C)C1(C)C [Compound K102, ingenol-3-angelate] , can you help?
Result: 25.5

Request: Looking for the measured Top Inhibition % of CC(=O)OC12CC(C)C3(O)C(C=C(COC(=O)CC(N)C(=O)[O-])CC4(O)C(=O)C(C)=CC43)C1C2(C)C.[Na+] (stereo not shown) [Compound K101I] , can you help?
Result: 29.3

Request: Looking for the measured Top Inhibition % of CCCCCCCCCCCCCC(=O)O[C@@H]1[C@@H](C)[C@@]2(O)[C@@H](C=C(CO)C[C@]3(O)C(=O)C(C)=C[C@@H]23)[C@@H]2C(C)(C)[C@]12OC(C)=O [Compound K103, 12-O-Tetradecanoylphorbol-13-acetate] , can you help?
Result: 15.5

Request: Looking for the measured Top Inhibition % of CC(=O)OC12CC(C)C3(O)C(C=C(CO)CC4(O)C(O)C(C)=CC43)C1C2(C)C (stereo not shown) [Compound K101C] , can you help?
Result: 20.2

Request: Looking for the measured Top Inhibition % of CCC/C=C/C=C/C(=O)O[C@H]1/C(=C/C(=O)OC)C[C@H]2C[C@H]([C@@H](C)O)OC(=O)C[C@H](O)C[C@@H]3C[C@H](OC(C)=O)C(C)(C)[C@](O)(C[C@@H]4C/C(=C/C(=O)OC)C[C@H](/C=C/C(C)(C)[C@]1(O)O2)O4)O3 , can you help?
Result: 20.0

---

Answer each item with its documented pEC50.
# System: H727
# METHOD_NOTES: Proliferation assay (CellTiter Glo)
# Type: cell-based
# CONDITION_LABEL: Homo sapiens, NCI-H727; H727 (K-RAS: G12V); absolute EC50; 96 hours; read-out: Ab EC50
Please keep in mind that pEC50 is minus log10 of the molar concentration; only the number is needed.

Request: Looking for the measured pEC50 of C/C=C(/C)C(=O)O[C@H]1C(C)=C[C@]23C(=O)[C@@H](C=C(CO)[C@@H](O)[C@]12O)[C@H]1[C@@H](C[C@H]3C)C1(C)C [Compound K102, ingenol-3-angelate] , can you help?
Result: 7.66

Request: Looking for the measured pEC50 of CCCCCCCCCCCCCC(=O)O[C@@H]1[C@@H](C)[C@@]2(O)[C@@H](C=C(CO)C[C@]3(O)C(=O)C(C)=C[C@@H]23)[C@@H]2C(C)(C)[C@]12OC(C)=O [Compound K103, 12-O-Tetradecanoylphorbol-13-acetate] , can you help?
Result: 8.66

---

# Test system: Pan2.03
# METHOD_NOTES: Proliferation assay (CellTiter Glo)
# Type: cell-based
# CONDITION_LABEL: Pan2.03; % of top inhibition; 96 hours
Lab note: anything with Top Inhibition % at or over 30% counts as Criterion met; the rest go in Criterion not met.

Request: Is reported Top Inhibition % greater than or equal to 30% here: CC(=O)OCC1=CC2C3C(C)(C)C3(OC(C)=O)CC(C)C2(O)C2C=C(C)C(=O)C2(O)C1 (stereo not shown) [Compound K101E]
Result: Criterion met

Request: Is reported Top Inhibition % greater than or equal to 30% here: CC(=O)O[C@@]12C[C@@H](C)[C@@]3(O)[C@@H](C=C(CO)C[C@]4(O)C(=O)C(C)=C[C@@H]34)[C@@H]1C2(C)C [Compound K101A, 12-deoxyphorbol 13-acetate]
Result: Criterion not met

Request: Is reported Top Inhibition % greater than or equal to 30% here: CC(=O)OC12CC(C)C3(O)C(C=C(COC(=O)CC(N)C(=O)[O-])CC4(O)C(=O)C(C)=CC43)C1C2(C)C.[Na+] (stereo not shown) [Compound K101I]
Result: Criterion not met

Request: Is reported Top Inhibition % greater than or equal to 30% here: CCC/C=C/C=C/C(=O)O[C@H]1/C(=C/C(=O)OC)C[C@H]2C[C@H]([C@@H](C)O)OC(=O)C[C@H](O)C[C@@H]3C[C@H](OC(C)=O)C(C)(C)[C@](O)(C[C@@H]4C/C(=C/C(=O)OC)C[C@H](/C=C/C(C)(C)[C@]1(O)O2)O4)O3
Result: Criterion not met

Request: Is reported Top Inhibition % greater than or equal to 30% here: CCCCCCCCCCCCCC(=O)O[C@@H]1[C@@H](C)[C@@]2(O)[C@@H](C=C(CO)C[C@]3(O)C(=O)C(C)=C[C@@H]23)[C@@H]2C(C)(C)[C@]12OC(C)=O [Compound K103, 12-O-Tetradecanoylphorbol-13-acetate]
Result: Criterion met

Request: Is reported Top Inhibition % greater than or equal to 30% here: CC(=O)O[C@H]1C(=O)[C@@]2(C)[C@H]([C@H](OC(=O)c3ccccc3)[C@]3(O)C[C@H](OC(=O)[C@H](O)[C@@H](NC(=O)c4ccccc4)c4ccccc4)C(C)=C1C3(C)C)[C@]1(OC(C)=O)CO[C@@H]1C[C@@H]2O
Result: Criterion met

Request: Is reported Top Inhibition % greater than or equal to 30% here: C/C=C(/C)C(=O)O[C@H]1C(C)=C[C@]23C(=O)[C@@H](C=C(CO)[C@@H](O)[C@]12O)[C@H]1[C@@H](C[C@H]3C)C1(C)C [Compound K102, ingenol-3-angelate]
Result: Criterion met

---

# Test system: CCRF-CEM
# METHOD_NOTES: Proliferation assay (CellTiter Glo)
# Type: cell-based
# CONDITION_LABEL: CCRF-CEM; relative EC50; 96 hours; read-out: Re EC50
# Experimental: The dose range for most compounds was 4.6 nM-30 μM. The dose ranges for some compounds were adjusted downward to 0.46 nM-3 μM or 0.08 nM-0.5 μM or 0.03 nM-0.2 μM. […] The results are shown in Tables 3-6 for pancreatic cancer, lung cancer, colon/gastric cancer, and leukemia.
PROPERTY: EC50

Request: Looking for the measured EC50 of CC(=O)OCC1=CC2C3C(C)(C)C3(OC(C)=O)CC(C)C2(O)C2C=C(C)C(=O)C2(O)C1 (centres unmarked) [Compound K101E] , can you help?
Result: 0.27 µM

Request: Looking for the measured EC50 of CC(=O)OC12CC(C)C3(O)C(C=C(COC(=O)CC(N)C(=O)[O-])CC4(O)C(=O)C(C)=CC43)C1C2(C)C.[Na+] (centres unmarked) [Compound K101I] , can you help?
Result: 1.51 µM

---

Answer each item with its documented EC50.
# Test system: MiaPaCa-2
# METHOD_NOTES: Proliferation assay (CellTiter Glo)
# Assay type: cell-based
# CONDITION_LABEL: Homo sapiens, MIA PaCa-2; MiaPaCa-2 (K-RAS: G12C); absolute EC50; 96 hours; read-out: Ab EC50
Report the value in nM with no unit label.

Request: Looking for the measured EC50 of CC(=O)O[C@H]1C(=O)[C@@]2(C)[C@H]([C@H](OC(=O)c3ccccc3)[C@]3(O)C[C@H](OC(=O)[C@H](O)[C@@H](NC(=O)c4ccccc4)c4ccccc4)C(C)=C1C3(C)C)[C@]1(OC(C)=O)CO[C@@H]1C[C@@H]2O [Paclitaxel] , can you help?
Result: 3.4

Request: Looking for the measured EC50 of C/C=C(/C)C(=O)O[C@H]1C(C)=C[C@]23C(=O)[C@@H](C=C(CO)[C@@H](O)[C@]12O)[C@H]1[C@@H](C[C@H]3C)C1(C)C [Compound K102, ingenol-3-angelate] , can you help?
Result: 13

Request: Looking for the measured EC50 of CC(=O)O[C@@]12C[C@@H](C)[C@@]3(O)[C@@H](C=C(CO)C[C@]4(O)C(=O)C(C)=C[C@@H]34)[C@@H]1C2(C)C [Compound K101A, 12-deoxyphorbol 13-acetate] , can you help?
Result: 300

Request: Looking for the measured EC50 of CCCCCCCCCCCCCC(=O)O[C@@H]1[C@@H](C)[C@@]2(O)[C@@H](C=C(CO)C[C@]3(O)C(=O)C(C)=C[C@@H]23)[C@@H]2C(C)(C)[C@]12OC(C)=O [Compound K103, 12-O-Tetradecanoylphorbol-13-acetate] , can you help?
Result: 0.28
